Exercise: for every item that follows, state its recorded Threshold of tumor cell numbers for HPV-16 detection.
Test system: HPV-16
Assay: qPCR sensitivity against HPV-HNSCC tumor samples diluted among 10 ng normal human DNA
Details: Sample # 6
Numbers only, in tumor cells.

Known results for molecules:
{"columns": ["molecule", "test-value"],
 "data": [
  ["BR E1-4: HPV-16 E1 region primer/probe set, SEQ ID NO: 37-39 (nucleic acid, chemistry not given here) DNA 1: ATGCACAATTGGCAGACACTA DNA 2: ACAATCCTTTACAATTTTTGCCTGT DNA 3: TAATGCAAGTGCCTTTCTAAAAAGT", 30.0],
  ["E7: previously designed (historical) HPV-16 E7 primers and Taqman probe, SEQ ID NO: 10-12; part of CLIA test (nucleic acid, Taqman probe, labels not given here, part of CLIA test) DNA 1: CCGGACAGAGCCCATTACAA DNA 2: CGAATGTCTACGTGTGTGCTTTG DNA 3: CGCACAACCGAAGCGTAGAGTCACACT", 6.0],
  ["BR E6-1: HPV-16 E6 region (172-373 bp) primer/probe set, SEQ ID NO: 58-60 (nucleic acid, chemistry not given here) DNA 1: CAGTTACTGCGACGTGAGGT DNA 2: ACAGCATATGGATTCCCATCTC DNA 3: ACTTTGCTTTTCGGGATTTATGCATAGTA", 60.0]
]}

Challenge: Form field: reported Threshold of tumor cell numbers for HPV-16 detection of BR E1-6: HPV-16 E1 region primer/probe set, SEQ ID NO: 43-45 (nucleic acid, chemistry not given here) DNA 1: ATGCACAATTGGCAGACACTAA DNA 2: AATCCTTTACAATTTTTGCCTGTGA DNA 3: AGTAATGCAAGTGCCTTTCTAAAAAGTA
Response given: 50.0
